# Species on record: Rattus norvegicus
# Assay details: Inhibition of rat recombinant Rab geranylgeranyltransferase at 100 uM in presence of canine Rab7 and rat REP1 NBD-FPP based continuous fluorimetric assay
Peptide text beside a SMILES is read from it. * marks the point of attachment. Hydrocinnamoyl = O=C(CCc1ccccc1)*; NHBn = c1ccc(CN*)cc1
Values of inhibition greater than or equal to 80% map to 1; values below map to 0.

[[record]]
compound = "CCCCCCCCCCCOc1ccc(C(=O)N[C@@H](Cc2c[nH]cn2)C(=O)N[C@@H](Cc2ccc(O)cc2)C(=O)N[C@@H](Cc2ccccc2)C(=O)NC2CCCCC2)cc1"
class_assignment = 0


hey, is inhibition for this one >= 80%? `O=C(CNC(=O)[C@H](Cc1c[nH]cn1)NC(=O)OCc1ccccc1)N[C@@H](Cc1ccc(O)cc1)C(=O)NCCCn1ccnc1`
1

Now consider `C[C@@H](O)[C@H](NC(=O)/C=C/c1ccccc1)C(=O)N[C@@H](Cc1ccccc1)C(=O)N[C@@H](CCC(N)=O)C(=O)NCCO` .
1

Now consider `O=C(CNC(=O)[C@H](Cc1ccc(O)cc1)NC(=O)c1coc(-c2ccccc2)n1)N[C@@H](Cc1c[nH]c2ccccc12)C(=O)O` .
0

Now consider COC(=O)[C@H](CCC(N)=O)NC(=O)[C@H](Cc1ccccc1)NC(=O)[C@H](CO)NC(=O)CCc1ccccc1 (Hydrocinnamoyl-Ser-Phe-Gln-OMe) .
0

Now consider NC(=O)CC[C@H](NC(=O)[C@H](Cc1ccccc1)NC(=O)[C@H](CO)NC(=O)CCc1ccccc1)C(=O)NCc1ccccc1 (Hydrocinnamoyl-Ser-Phe-Gln-NHBn) .
1

----------
# Assay details: Inhibition of rat recombinant Rab geranylgeranyltransferase by SDS-PAGE end point assay
pIC50: −log10 of the molar value.
Values of pIC50 greater than or equal to 5 map to rule met; values below map to rule not met.

Field: example entries. Status: answers known.
[[record]]
line_notation = "O=C(CNC(=O)[C@H](Cc1c[nH]cn1)NC(=O)c1coc(-c2ccccc2)n1)N[C@@H](Cc1cn(C(c2ccccc2)(c2ccccc2)c2ccccc2)cn1)C(=O)O"
class_assignment = "rule not met"

[[record]]
line_notation = "CCCCCCCCCCC(=O)N[C@@H](Cc1c[nH]cn1)C(=O)N[C@@H](Cc1ccccc1)C(=O)N[C@@H](Cc1ccc(O)cc1)C(=O)N(C)CCc1ccccn1"
class_assignment = "rule met"

[[record]]
line_notation = "CCCCCCCCCCC(=O)N[C@@H](Cc1ccc(O)cc1)C(=O)N[C@@H](Cc1c[nH]cn1)C(=O)N[C@@H](Cc1ccc(O)cc1)C(=O)N(C)CCc1ccccn1"
class_assignment = "rule met"

[[record]]
line_notation = "O=C(CNC(=O)[C@H](Cc1cn(C(c2ccccc2)(c2ccccc2)c2ccccc2)cn1)NC(=O)c1coc(-c2ccccc2)n1)N[C@@H](Cc1c[nH]cn1)C(=O)O"
class_assignment = "rule not met"


Turning now to a further compound:
hey, is pIC50 for this one >= 5? `O=C(CNC(=O)c1coc(-c2ccccc2)n1)N[C@@H](Cc1ccccc1)C(=O)N[C@@H](Cc1cn(C(c2ccccc2)(c2ccccc2)c2ccccc2)cn1)C(=O)O`
rule not met

----------
# Species on record: Rattus norvegicus
# Assay details: Inhibition of rat recombinant Rab geranylgeranyltransferase at 100 uM in presence of canine Rab7 and rat REP1 NBD-FPP based continuous fluorimetric assay
Peptide text beside a SMILES is read from it. * marks the point of attachment. Hydrocinnamoyl = O=C(CCc1ccccc1)*; NHNH2 = NN*
Values of inhibition greater than or equal to 80% map to true; values below map to false.

Field: example entries. Status: answers known.
[[record]]
compound = "C[C@@H](O)[C@H](NC(=O)/C=C/c1ccccc1)C(=O)N[C@@H](Cc1ccccc1)C(=O)N[C@@H](CCC(N)=O)C(=O)Nc1ccc(F)c(Cl)c1"
class_assignment = "true"

[[record]]
compound = "C=CCOC(=O)[C@H](Cc1cn(C(c2ccccc2)(c2ccccc2)c2ccccc2)cn1)NC(=O)[C@H](Cc1ccccc1)NC(=O)CNC(=O)c1csc(-c2cccs2)n1"
class_assignment = "true"

[[record]]
compound = "CCC/C=C\\c1ccccc1/C=C/C(=O)N[C@H](Cc1ccc(O)cc1)C(=O)N(C)[C@@H](Cc1ccc(OC)cc1)C(=O)N(C)[C@@H](Cc1ccccc1)C(=O)OCc1c[nH]c(=O)[nH]c1=O"
class_assignment = "false"

[[record]]
compound = "NNC(=O)[C@H](CCC(N)=O)NC(=O)[C@H](Cc1ccccc1)NC(=O)CNC(=O)CCc1ccccc1 (Hydrocinnamoyl-Gly-Phe-Gln-NHNH2)"
class_assignment = "true"

[[record]]
compound = "CCCCCCCCCCOc1ccc(C(=O)N[C@@H](Cc2c[nH]c3ccccc23)C(=O)N[C@@H](Cc2c[nH]cn2)C(=O)N[C@@H](Cc2c[nH]cn2)C(=O)OC)cc1"
class_assignment = "false"


hey, is inhibition for this one >= 80%? `CC[C@H](C)[C@H](NC(=O)/C=C/c1ccc(F)cc1)C(=O)N[C@@H](C)C(=O)N[C@@H](CCC(N)=O)C(=O)Nc1ccc(F)c(Cl)c1`
false

Now consider `CC(C)CCNC(=O)[C@H](Cc1ccccc1)NC(=O)[C@H](CC(C)C)NC(=O)[C@@H]1CCCN1C(=O)/C=C/c1ccccc1` .
true

Now consider `C[C@H](NC(=O)[C@@H](NC(=O)c1ccc(-c2ccccc2)cc1)[C@@H](C)O)C(=O)N[C@@H](CCC(N)=O)C(=O)Nc1ccc(F)c(Cl)c1` .
true

# credit: ChEMBL document CHEMBL1153722
